Each item that follows carries a reported logP.
- assayExplanation: method code SF-AS, from DOI: 10.1248/cpb.39.1736, PMID: 1777927

Which measured logP value corresponds to CCCCCCNC(=O)C=Cc1ccc(O)c(O)c1 ?
3.37

Which measured logP value corresponds to CCCCc1ccc(O)c(O)c1 ?
2.96

Which measured logP value corresponds to CCCC(=O)C=Cc1ccc(O)c(O)c1 ?
2.61

Which measured logP value corresponds to COc1ccc(NC(=O)/C=C/c2ccc(O)c(O)c2)cc1OC ?
2.3

---

Each item that follows carries a reported logP.
- assayExplanation: method code SF-AS, from DOI: 10.1248/cpb.39.1736, PMID: 1777927
# answer = number (no unit)

| compound | assayResult |
| --- | --- |
| CCCCNC(=O)c1ccc2cc(O)c(O)cc2c1 | 2.72 |

Which measured logP value corresponds to CCCCOC(=O)/C=C/c1ccc(O)c(O)c1 ?
3.53

Which measured logP value corresponds to O=C(/C=C/c1ccc(O)c(O)c1)NCCc1ccccc1 ?
2.72

Which measured logP value corresponds to COc1ccc(CCNC(=O)/C=C/c2ccc(O)c(O)c2)cc1OC ?
2.07

Which measured logP value corresponds to CCCCC=Cc1ccc(O)c(O)c1 ?
3.82

Which measured logP value corresponds to COc1ccc(CNC(=O)C=Cc2ccc(O)c(O)c2)cc1OC ?
1.99

Which measured logP value corresponds to CCCCCC(O)c1ccc(O)c(O)c1 (configuration not stated) ?
2.32
